# Test system: NCI-H2009
# TEST: relative viability (nuclei count vs DMSO), 5 days (fraction); higher = more cells survive
# CONDITIONS: first compound 2 µM
# relative viability values compiled below
# respond with the number and nothing more

Would you please look over these solved cases?
MOLECULE	NUMERIC_READOUT
Cc1csc(=NC2CCCCC2)n1/N=C/c1ccc(O)c(O)c1O [MIM1] + CC(=O)c1c(C)c2cnc(Nc3ccc(N4CCNCC4)cn3)nc2n(C2CCCC2)c1=O [Palbociclib] (partner 0.5 µM)	0.331
CN1CCN(CCOc2cc(OC3CCOCC3)c3c(Nc4c(Cl)ccc5c4OCO5)ncnc3c2)CC1 [Saracatinib] + CC(=O)Nc1cccc(-n2c(=O)n(C3CC3)c(=O)c3c(Nc4ccc(I)cc4F)n(C)c(=O)c(C)c32)c1 [Trametinib] (partner 0.02 µM)	0.175
CN1CCN(CCOc2cc(OC3CCOCC3)c3c(Nc4c(Cl)ccc5c4OCO5)ncnc3c2)CC1 [Saracatinib] + COc1cc2c(Oc3ccc(NC(=O)C4(C(=O)Nc5ccc(F)cc5)CC4)cc3F)ccnc2cc1OCCCN1CCOCC1 [Foretinib] (partner 0.25 µM)	1.03

We next turn to a different molecule, shown below.
// query // lookup relative viability for CN1CCN(CCOc2cc(OC3CCOCC3)c3c(Nc4c(Cl)ccc5c4OCO5)ncnc3c2)CC1 [Saracatinib] + CS(=O)(=O)CCNCc1ccc(-c2ccc3ncnc(Nc4ccc(OCc5cccc(F)c5)c(Cl)c4)c3c2)o1 [Lapatinib] (partner 2 µM)
// result 0.772

* * *

# System: NCI-H358
# TEST: relative viability (nuclei count vs DMSO), 5 days (fraction); higher = more cells survive
# CONDITIONS: first compound 0.003162 µM
RECORDED_METRIC: relative viability

Would you please look over these solved cases?
COMPOUND	TESTED_TARGET	relative viability
Cc1cn(-c2cc(NC(=O)c3ccc(C)c(Nc4nccc(-c5cccnc5)n4)c3)cc(C(F)(F)F)c2)cn1 [Nilotinib] + N=C(N)NC(=N)NCCc1ccccc1 [Phenformin] (partner 250 µM)	NCI-H358	0.453
Cc1cn(-c2cc(NC(=O)c3ccc(C)c(Nc4nccc(-c5cccnc5)n4)c3)cc(C(F)(F)F)c2)cn1 [Nilotinib] + NC(=O)Nc1cc(-c2cccc(F)c2)sc1C(=O)N[C@H]1CCCNC1 [AZD7762] (partner 0.2 µM)	NCI-H358	0.539
Cc1cn(-c2cc(NC(=O)c3ccc(C)c(Nc4nccc(-c5cccnc5)n4)c3)cc(C(F)(F)F)c2)cn1 [Nilotinib] + COc1cccc2cc(-c3nc([C@H]4CC[C@H](C(=O)O)CC4)n4ncnc(N)c34)[nH]c12 [OSI-027] (partner 0.5 µM)	NCI-H358	1.09
Cc1cn(-c2cc(NC(=O)c3ccc(C)c(Nc4nccc(-c5cccnc5)n4)c3)cc(C(F)(F)F)c2)cn1 [Nilotinib] + Nc1nc2[nH]cc(CCc3ccc(C(=O)N[C@@H](CCC(=O)O)C(=O)O)cc3)c2c(=O)[nH]1 [Pemetrexed] (partner 0.2 µM)	NCI-H358	0.175

Please find the next compound below.
// query Return reported relative viability; argument: Cc1cn(-c2cc(NC(=O)c3ccc(C)c(Nc4nccc(-c5cccnc5)n4)c3)cc(C(F)(F)F)c2)cn1 [Nilotinib] + COc1cc2c(Oc3ccc(NC(=O)C4(C(=O)Nc5ccc(F)cc5)CC4)cc3F)ccnc2cc1OCCCN1CCOCC1 [Foretinib] (partner 0.25 µM)
// result 0.8
